Each entry below lists one item and its recorded pKd value.
target_of_assay: T1, His-tagged cynomolgus monkey CD38 (ACRO Biosystems, CD8-05223 [sic]) (cynomolgus monkey, UniProt Q5VAN0 43-301)
T1 construct: bought protein; used for ELISA coating and as SPR analyte; not shown: His tag
assay_overview: SPR (second run), His-tagged CD38
Please treat pKd as minus the base-10 logarithm of the molar concentration.

Please review the following examples before continuing.
# binder, pKd
measured = [
    ("40617p1.2.H1 (scFv, V domains shown) VH: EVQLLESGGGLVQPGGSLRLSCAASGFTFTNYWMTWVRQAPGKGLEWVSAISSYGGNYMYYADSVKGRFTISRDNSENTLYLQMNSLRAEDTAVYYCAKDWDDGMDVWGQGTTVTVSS VL: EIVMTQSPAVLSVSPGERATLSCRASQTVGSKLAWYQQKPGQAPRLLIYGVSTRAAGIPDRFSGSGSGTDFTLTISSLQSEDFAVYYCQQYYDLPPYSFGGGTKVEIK", 7.47),
    ("40596p1.F6 (scFv, V domains shown) VH: EVQLLESGGGLVQPGGSLRLSCAASGFDFSKNAMSWVRQAPGKGLEYVAGSGWSGSFIFYADSVKGRFTVSRDNSENTLYLQMSSLRAEDTAVYYCAKNPGFGEMDVWGQGTTVTVSS VL: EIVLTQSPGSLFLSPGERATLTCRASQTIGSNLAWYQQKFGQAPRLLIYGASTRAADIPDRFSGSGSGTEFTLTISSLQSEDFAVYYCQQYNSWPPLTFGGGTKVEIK", 6.55),
]

Pending binder:
Request: Fill in the blank: the reported pKd of 40769p1.2.F9 (scFv, V domains shown) VH: EVQLLESGGDLVQPGGSLRLSCGASGFTFSDHYMSWVRQAPGKGLEWVADISARGSNTWYADSVKGRFTISRDNSENTLYLQMNSLRAEDTAVYYCAKNWNYNYGMDVWGQGTTVTVSS VL: QSVLTQAPSASGTPGQRVTISCSGSSIQNNYVSWYQQLPGTAPKLLIYRNFERPSGVPDRFSASKSGTSASLAISGLQSGDEADYYCASWDDSLNWVFGGGTKLTVL is ____.
Response: 8.08
